What self-cleavage was measured for each of the following?
B1: LINE1-mini (parent)
chain: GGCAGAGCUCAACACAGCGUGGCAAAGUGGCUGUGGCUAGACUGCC

# Variants of: B1
# test summary: self-cleavage, relative activity (ratio to wild type); higher = more cleavage; in vitro, sequencing; the parent is a self-cleaving ribozyme
Could you respond with only the numeric value?

Query: Data request, read-out self-cleavage, for C8G C13A
Response: 0.11

Query: Query U32C G36U next
Response: 0.06

Query: Query G17A C18G next
Response: 0.32

Query: Query G19C U38A next
Response: 0.05

Query: Query A11C C13A next
Response: 0.03

Query: Query G27C C45G next
Response: 0.32

Query: Query G17C U34G next
Response: 0.1

Query: Query U28G C42G next
Response: 0.03

Query: Query A14G G21U next
Response: 0.79

Query: Query G27U G33U next
Response: 0.07

Query: Query G30U G44A next
Response: 0.42

Query: Query C31G G36U next
Response: 0.05

Query: Query U20A G36A next
Response: 0.26

Query: Query G17U A24U next
Response: 0.25

Query: Query U38G G40U next
Response: 0.05

Query: Query G17A C31U next
Response: 0.35

Query: Query G30U G40A next
Response: 0.08

Query: Query A4C C37U next
Response: 0.16

Query: Query C3G G44C next
Response: 0.93

Query: Query C13U A14G next
Response: 0.17

Query: Query G35C A41U next
Response: 0.13

Query: Query A4U G19U next
Response: 0.15
